// provenance: patent US8697683B2

Target: MGL (Rattus norvegicus)
Construct: one g rat brain was homogenized
Sequence (Q8R431 1-303): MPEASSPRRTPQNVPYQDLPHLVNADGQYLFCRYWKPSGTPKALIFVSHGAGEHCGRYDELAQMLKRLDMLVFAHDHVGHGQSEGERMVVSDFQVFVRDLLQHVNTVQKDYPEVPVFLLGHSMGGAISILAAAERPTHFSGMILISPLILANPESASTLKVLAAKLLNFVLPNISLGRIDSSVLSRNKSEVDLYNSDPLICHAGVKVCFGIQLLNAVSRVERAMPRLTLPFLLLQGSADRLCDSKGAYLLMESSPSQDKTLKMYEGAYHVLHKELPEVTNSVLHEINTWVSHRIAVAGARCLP
Test: 2-AG Accumulation Assay (rat brain homogenate)
Type: biochemical
Conditions: compound 1 μM, percent of vehicle 2-AG accumulation
Measured Rat Brain 2AG % VehCntrl (%) @1 μM accompanies every entry in the list below.

sample.smiles: O=C(c1nccs1)N1CCN(C2CN(C(=O)c3sc4cc(C(F)(F)F)ccc4c3F)C2)CC1
Rat Brain 2AG % VehCntrl (%) @1 μM: 1207
//
sample.smiles: Cc1nc(-c2cccc(C(F)(F)F)c2)sc1C(=O)N1CC(N2CCN(C(=O)c3nccs3)CC2)C1
Rat Brain 2AG % VehCntrl (%) @1 μM: 1287
//
sample.smiles: O=C(c1nccs1)N1CCN(C2CN(C(=O)c3sc4cc(-c5ccccc5)ccc4c3Cl)C2)CC1
Rat Brain 2AG % VehCntrl (%) @1 μM: 1371
//
sample.smiles: O=C(c1ccc(-c2cccc(C(F)(F)F)c2)c(Cl)c1)N1CC(N2CCN(C(=O)c3cscn3)CC2)C1
Rat Brain 2AG % VehCntrl (%) @1 μM: 878
//
sample.smiles: O=C(c1ccc(Cc2cccc(C(F)(F)F)c2)cc1)N1CC(N2CCN(C(=O)c3nccs3)CC2)C1
Rat Brain 2AG % VehCntrl (%) @1 μM: 1080
//
sample.smiles: Cc1c(C(=O)N2CC(N3CCN(C(=O)c4nccs4)CC3)C2)sc2ccc(C(F)(F)F)cc12
Rat Brain 2AG % VehCntrl (%) @1 μM: 1234
//
sample.smiles: Cn1cc(-c2cccc(C(F)(F)F)c2)c2ccc(C(=O)N3CC(N4CCN(C(=O)c5nccs5)CC4)C3)cc21
Rat Brain 2AG % VehCntrl (%) @1 μM: 1133
//
sample.smiles: O=C(c1ccc(OCc2ccc3ccccc3n2)cc1)N1CC(N2CCN(C(=O)c3nccs3)CC2)C1
Rat Brain 2AG % VehCntrl (%) @1 μM: 1373
